Every entry's value here was drawn from paper PMC9250652.

substrate: O=C1c2c(O)cc(O)cc2O[C@H](c2ccc(O)c(O)c2)[C@H]1O; assay: purified protein; assay type: biochemical, Camellia sinensis; details: apparent Km, NADPH, 0.1 M potassium phosphate pH 7.0, 30 °C
property label: Km (µM)
Hi! Could you send only the number? It should be in µM, unit omitted.

Value of measured Km for the entry CsDFRa (Camellia sinensis) (protein) MKDSVASATASAPGTVCVTGAAGFIGSWLVMRLLERGYIVRATVRDPANLKKVKHLLDLPKADTNLTLWKADLNEEGSFDEAIEGCSGVFHVATPMDFESKDPENEVIKPTINGVLSIIRSCTKAKTVKRLVFTSSAGTVNVQEHQQPVFDENNWSDLDFINKKKMTGWMYFVSKTLAEKAAWEAAKENNIDFISIIPTLVVGPFIMPTFPPSLITALSPITRNEGHYSIIKQGQFVHLDDLCESHIFLYERPQAEGRYICSSHDATIHDLAKLMREKWPEYNVPTEFKGIDKDLPVVSFSSKKLIGMGFEFKYSLEDMFRGAIDTCREKGLLPHSFAENPVNGNKV : 41.80
